tested on: Salmonella typhimurium; test: Antibacterial activity against Salmonella Typhimurium after 16 to 20 hrs by broth microdilution method; format: functional, Salmonella enterica subsp. enterica serovar Typhimurium; conditions: Salmonella enterica
value.type: MIC

// below: answered compounds
CO[C@H]1/C=C/O[C@@]2(C)Oc3c(C)c(O)c4c(O)c(c(/C=N/N5CCN(C)CC5)c(O)c4c3C2=O)NC(=O)/C(C)=C\C=C\[C@H](C)[C@H](O)[C@@H](C)[C@@H](O)[C@@H](C)[C@H](OC(C)=O)[C@@H]1C | > 100 µg/mL
CCCCCCCCCCC#Cc1cn([C@@H]2O[C@H](CO)[C@@H](O)[C@H]2F)c(=O)[nH]c1=O | > 100 µg/mL

Turning now to a further record.
[ask] Query (compound): CCCCCCCCC#Cc1cn([C@@H]2O[C@H](CO)[C@@H](O)[C@H]2F)c(=O)[nH]c1=O ; field requested: MIC
[reply] > 100 µg/mL
